Recorded %-inhibition of DDR2, one value per entry.
biological target: panel of more than 300 wild-type and mutant kinases (313 kinase panel) (Homo sapiens); test: Kinase profiling in a biochemical assay panel (mobility shift assays and ELISA), %-inhibition at 1 μM; selectivity entropy; settings: kinase DDR2; compound at 1 μM
Sequence (Q16832 22-855, change not shown): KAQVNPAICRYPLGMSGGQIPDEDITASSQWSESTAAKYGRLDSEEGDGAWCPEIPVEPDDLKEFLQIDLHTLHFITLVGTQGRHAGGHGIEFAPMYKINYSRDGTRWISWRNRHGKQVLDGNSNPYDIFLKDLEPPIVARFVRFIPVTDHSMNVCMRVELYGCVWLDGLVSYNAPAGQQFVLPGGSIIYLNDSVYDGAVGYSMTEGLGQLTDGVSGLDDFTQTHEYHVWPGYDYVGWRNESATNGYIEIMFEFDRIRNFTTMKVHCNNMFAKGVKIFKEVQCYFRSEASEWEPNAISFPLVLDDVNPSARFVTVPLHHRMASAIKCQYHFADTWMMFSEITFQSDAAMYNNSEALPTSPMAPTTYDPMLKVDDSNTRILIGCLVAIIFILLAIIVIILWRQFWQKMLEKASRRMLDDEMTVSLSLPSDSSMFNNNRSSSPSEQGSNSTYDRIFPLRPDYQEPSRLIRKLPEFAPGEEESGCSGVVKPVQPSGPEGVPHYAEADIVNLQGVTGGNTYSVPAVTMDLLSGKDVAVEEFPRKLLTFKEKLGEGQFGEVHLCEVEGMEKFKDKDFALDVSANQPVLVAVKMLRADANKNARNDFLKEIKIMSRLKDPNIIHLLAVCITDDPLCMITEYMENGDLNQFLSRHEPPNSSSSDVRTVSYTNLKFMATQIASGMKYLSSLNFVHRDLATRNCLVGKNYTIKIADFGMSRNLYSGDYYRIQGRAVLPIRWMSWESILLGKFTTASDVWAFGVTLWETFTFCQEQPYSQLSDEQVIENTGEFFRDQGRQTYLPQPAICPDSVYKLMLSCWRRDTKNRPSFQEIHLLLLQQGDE
reportedMetric: %-inhibition of DDR2 (%)

compound	measuredTarget	result
N#CC[C@H](C1CCCC1)n1cc(-c2ncnc3[nH]ccc23)cn1	panel of more than 300 wild-type and mutant kinases (313 kinase panel) (Homo sapiens)	49
COc1cc2nccc(Oc3ccc(NC(=O)C4(C(=O)Nc5ccc(F)cc5)CC4)cc3)c2cc1OC [cabozantinib]	panel of more than 300 wild-type and mutant kinases (313 kinase panel) (Homo sapiens)	99
CNC(=O)c1cc(Oc2ccc(NC(=O)Nc3ccc(Cl)c(C(F)(F)F)c3)c(F)c2)ccn1	panel of more than 300 wild-type and mutant kinases (313 kinase panel) (Homo sapiens)	102
CC(=O)Nc1cccc(-n2c(=O)n(C3CC3)c(=O)c3c(Nc4ccc(I)cc4F)n(C)c(=O)c(C)c32)c1	panel of more than 300 wild-type and mutant kinases (313 kinase panel) (Homo sapiens)	0.612
COc1cc2c(Nc3ccc(Br)cc3F)ncnc2cc1OCC1CCN(C)CC1	panel of more than 300 wild-type and mutant kinases (313 kinase panel) (Homo sapiens)	101
COc1cc(Nc2c(C#N)cnc3cc(OCCCN4CCN(C)CC4)c(OC)cc23)c(Cl)cc1Cl	panel of more than 300 wild-type and mutant kinases (313 kinase panel) (Homo sapiens)	96
CC(C)(C)c1nc(-c2cccc(NS(=O)(=O)c3c(F)cccc3F)c2F)c(-c2ccnc(N)n2)s1	panel of more than 300 wild-type and mutant kinases (313 kinase panel) (Homo sapiens)	100
O=S(=O)(c1cccc2cnccc12)N1CCCNCC1	panel of more than 300 wild-type and mutant kinases (313 kinase panel) (Homo sapiens)	0.102
CO[C@H]1C[C@@H]2CC[C@@H](C)[C@@](O)(O2)C(=O)C(=O)N2CCCC[C@H]2C(=O)O[C@H]([C@H](C)C[C@@H]2CC[C@@H](OCCO)[C@H](OC)C2)CC(=O)[C@H](C)/C=C(\C)[C@@H](O)[C@@H](OC)C(=O)[C@H](C)C[C@H](C)/C=C/C=C/C=C/1C	panel of more than 300 wild-type and mutant kinases (313 kinase panel) (Homo sapiens)	0
C[C@@H](Oc1cc(-c2cnn(C3CCNCC3)c2)cnc1N)c1c(Cl)ccc(F)c1Cl	panel of more than 300 wild-type and mutant kinases (313 kinase panel) (Homo sapiens)	88

# credit: paper PMC3961306
